The measurements presented in this section are drawn from patent US20220298217A1.

Assayed Target: T1, Flag-PTHR1-YFP (UniProt Q03431 27-593); note: unit not given here
T1 sequence (looked up): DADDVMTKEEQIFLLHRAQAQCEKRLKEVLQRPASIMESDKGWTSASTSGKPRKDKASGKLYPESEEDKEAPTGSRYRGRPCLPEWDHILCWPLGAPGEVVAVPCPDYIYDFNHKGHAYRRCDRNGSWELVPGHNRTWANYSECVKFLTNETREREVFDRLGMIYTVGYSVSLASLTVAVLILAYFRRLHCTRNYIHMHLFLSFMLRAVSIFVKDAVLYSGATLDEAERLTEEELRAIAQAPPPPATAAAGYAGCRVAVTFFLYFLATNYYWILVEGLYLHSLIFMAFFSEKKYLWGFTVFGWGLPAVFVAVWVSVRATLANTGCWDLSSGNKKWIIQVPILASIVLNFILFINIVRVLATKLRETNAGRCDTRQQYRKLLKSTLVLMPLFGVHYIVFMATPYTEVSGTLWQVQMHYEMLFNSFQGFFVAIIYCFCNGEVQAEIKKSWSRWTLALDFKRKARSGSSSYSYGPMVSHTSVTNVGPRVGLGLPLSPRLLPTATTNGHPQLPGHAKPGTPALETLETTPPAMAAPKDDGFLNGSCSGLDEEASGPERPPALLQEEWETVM
Experiment: cell-based or functional assay
Observable: arrestin 2 recruitment (BRET): Emax

Binder | Recorded Measurement
AVAEIQLMHQRAKWELQEIGIAITLRLLARYI [R2-43] | 7.45
AVAEIQLMHQRAKWKLELELKAFLDQILKDVL [R2-36] | 7.53
AVAEIQLMHQRAKWRLEIELLKKLKEILKDVY [R2-34] | 7.61
